biological target: SARS-CoV-2 Mac1 (Severe acute respiratory syndrome coronavirus 2, UniProt P0DTD1); assay: biochemical; conditions: read-out: %inhibition
Structures can show the parent of a compound that is named as a salt.
Give inhibition at 100 µM for every item shown.
Respond with the figure and its unit, in that order.

The compound N[C@@H](CC(=O)N1CCn2c(nnc2C(F)(F)F)C1)Cc1cc(F)c(F)cc1F showed inhibition at 100 µM equal to 0%

GET /value?item= COCCOC(=O)C1=C(C)NC(C)=C(C(=O)OC/C=C/c2ccccc2)C1c1cccc([N+](=O)[O-])c1 (stereo not drawn) &field=inhibition at 100 µM returns 0%

Short answer for Oc1ccc(C2CNCCc3c2cc(O)c(O)c3Cl)cc1 (stereo not drawn) [Fenoldopam mesylate] : inhibition at 100 µM was 0%

Per the record, Cn1cnc([N+](=O)[O-])c1Sc1ncnc2[nH]cnc12 has inhibition at 100 µM of 18.9%

// inhibition at 100 µM value for CC1(C)[C@@H]2CC[C@@]1(C)C(=O)C2 [(+)-Camphor] : 0%

Input CCCCCN(C)CCC(O)(P(=O)(O)O)P(=O)(O)O [Ibandronate sodium] . Output inhibition at 100 µM: 4.37%

Form field inhibition at 100 µM, entry Cc1cnc(C(=O)NCCc2ccc(S(=O)(=O)NC(=O)NC3CCCCC3)cc2)cn1 [Glipizide] : 19.9%

Sure, the documented inhibition at 100 µM for CC(C)=CCC/C(C)=C/CC/C(C)=C/CCC(=O)OC/C=C(\C)CCC=C(C)C [Gefarnate] is 5.96%

Entry CCN(CC)CCOC(=O)C(O)(c1ccccc1)c1ccccc1 [Benactyzine hydrochloride] ; inhibition at 100 µM = 0%

C[C@]12CC[C@@H]3c4ccc(O)cc4C[C@@H](CCCCCCCCC[S+]([O-])CCCC(F)(F)C(F)(F)F)[C@H]3[C@@H]1CC[C@@H]2O (stereo partly drawn) has a reported inhibition at 100 µM of 1.46%

For reference, reported inhibition at 100 µM for O[C@@H]1CO[C@H]2[C@@H]1OC[C@@H]2O [Isosorbide] stands at 17.9%

inhibition at 100 µM measured on CC(CN1c2ccccc2Sc2ccccc21)N(C)C (stereo not drawn) [Promethazine HCl] = 0%

The reported value for CC(C)Oc1ccc(-c2nc(-c3cccc4c3CC[C@@H]4NCCO)no2)cc1C#N [Ozanimod (RPC1063)] in terms of inhibition at 100 µM is 0%

GET /value?item= CCN(CCCc1ccccc1)CCCc1ccccc1 [Alverine Citrate] &field=inhibition at 100 µM returns 8.25%

inhibition at 100 µM in this record for NCC(=O)CCC(=O)O [5-Aminolevulinic acid HCl] : 7.12%

For record Nc1nc2[nH]cnc2c(=S)[nH]1 the listed inhibition at 100 µM is 18.9%

Kindly note the recorded inhibition at 100 µM for NC(=O)C(c1ccccc1)(c1ccccc1)[C@@H]1CCN(CCc2ccc3c(c2)CCO3)C1 , which is 0%

Form: compound = C[C@]12CCC3=C4CCC(=O)C=C4CC[C@H]3[C@@H]1CC[C@@]2(O)CC#N ; inhibition at 100 µM = 22%

----------
Would you mind telling me the reported inhibition at 100 µM of each entry?
target: SARS-CoV-2 Mac1 (Severe acute respiratory syndrome coronavirus 2); experiment: biochemical; settings: read-out: %inhibition
Counter-ions that a name gives are not always drawn.
Express the result in % but write the number alone.

// recorded inhibition at 100 µM for CN1CCC(=C2c3ccccc3CC(=O)c3sccc32)CC1 [Ketotifen Fumarate] : 0

Record summary for C[C@@H]1O[C@@H]1P(=O)(O)O [Fosfomycin Disodium] : reported inhibition at 100 µM = 0

In plain terms, O=C1[C@@H]2[C@H]3CC[C@H](C3)[C@@H]2C(=O)N1C[C@@H]1CCCC[C@H]1CN1CCN(c2nsc3ccccc23)CC1 [lurasidone] has a documented inhibition at 100 µM of 0

Field inhibition at 100 µM (entry CCCc1cc(C(N)=S)ccn1 [Protionamide] ) reads 50.9

Entry under test: O=C(/C=C/c1cccc(S(=O)(=O)Nc2ccccc2)c1)NO [Belinostat (PXD101)] . Its inhibition at 100 µM was 20

inhibition at 100 µM recorded for this molecule, Cc1cc(C)c2c(c1)[C@@H](N(Cc1cc(C(F)(F)F)cc(C(F)(F)F)c1)c1nnn(C)n1)CCCN2C[C@H]1CC[C@H](C(=O)O)CC1 [Evacetrapib (LY2484595)] , is 28.7

Kindly note the recorded inhibition at 100 µM for O=C(O)c1cc(/N=N/c2ccc(O)c(C(=O)O)c2)ccc1O [Olsalazine Sodium] , which is 11.8

Memo: CC(C)(C)Cn1c(N)nc2ccc(-c3[nH]c(C(C)(C)C)nc3-c3ccc(F)cc3)nc21 [Ralimetinib (LY2228820)] , reported inhibition at 100 µM: 0.925

The value of inhibition at 100 µM measured for the molecule CC(CN(C)C)CN1c2ccccc2CCc2ccccc21 (centres unmarked) [Trimipramine Maleate] turned out to be 0

Lab note: measured inhibition at 100 µM of C[C@]1(O)C[C@@H](c2nc(-c3ccc4ccc(-c5ccccc5)nc4c3)c3c(N)nccn32)C1 [Linsitinib (OSI-906)] was 9.54

The value of inhibition at 100 µM measured for the molecule COc1ccc(C2CNC(=O)C2)cc1OC1CCCC1 (centres unmarked) [Rolipram] turned out to be 0

inhibition at 100 µM measured on C[C@H](CCC(=O)O)[C@H]1CC[C@H]2[C@@H]3[C@H](O)C[C@@H]4C[C@H](O)CC[C@]4(C)[C@H]3CC[C@]12C [Chenodeoxycholic Acid] = 0

Entry COC(=O)[C@@H]1[C@H]2C[C@H]3c4[nH]c5ccccc5c4CCN3C[C@@H]2CC[C@@H]1O [Yohimbine HCl] ; inhibition at 100 µM = 0

The molecule CCn1nc(C(=O)O)c(=O)c2cc3c(cc21)OCO3 [Cinoxacin] showed inhibition at 100 µM equal to 0.626

Lookup result for COc1ccc(C(=O)NCc2ccc(OCCN(C)C)cc2)cc1OC [Itopride hydrochloride] ; measured inhibition at 100 µM: 0

# molecule O=C(O)[C@H]1O[C@H](O)[C@H](O)[C@@H](O)[C@@H]1O [Sodium Gluconate] ; its inhibition at 100 µM = 0

# molecule Cc1ccc([C@@H]2O[C@H](CO)[C@@H](O)[C@H](O)[C@H]2O)cc1Cc1ccc(-c2ccc(F)cc2)s1 [Canagliflozin] ; its inhibition at 100 µM = 0

----------
biological target: SARS-CoV-2 Mac1 (Severe acute respiratory syndrome coronavirus 2, UniProt P0DTD1); assay: biochemical; settings: read-out: %inhibition
Where a name gives a salt, the structure may show the parent alone.
Would you kindly list inhibition at 100 µM for each of these molecules?
Express it in %; write the number only.

What the record says about CCOc1ccc2nc3cc(N)ccc3c(N)c2c1 [Ethacridine lactate monohydrate] : inhibition at 100 µM is 25.8

Item: Cc1c(-c2ccccc2)oc2c(C(=O)OCCN3CCCCC3)cccc2c1=O [Flavoxate HCl] | inhibition at 100 µM: 0

# molecule O=C(NCCO[N+](=O)[O-])c1cccnc1 ; its inhibition at 100 µM = 15.7

// CC(C(=O)O)c1ccc2c(c1)CC(=O)c1ccccc1S2 (stereo not shown) : inhibition at 100 µM value = 16.4

Kindly note the recorded inhibition at 100 µM for O=C(Nc1ccccc1)OCC(CN1CCCCC1)OC(=O)Nc1ccccc1 (stereo not shown) [Diperodon HCl] , which is 0.82

So for CCCC(=O)O [Sodium butyrate] , the logged inhibition at 100 µM turned out to be 0

# inhibition at 100 µM (molecule: Cc1cn([C@@H]2C[C@@H](O)[C@H](CO)O2)c(=O)[nH]c1=O ) is 0

For record CC(C)(C)NCC(O)COc1cccc2c1CCC(=O)N2 (stereo not shown) [Carteolol HCl] the listed inhibition at 100 µM is 3.36

Entry C[C@@H](O)[C@H]1C(=O)N2C(C(=O)[O-])=C(SC3Cn4cnc[n+]4C3)[C@H](C)[C@H]12 (stereo partly shown) , inhibition at 100 µM reported as 5.82

Field inhibition at 100 µM (entry CS(=O)(=O)c1ccc([C@@H](O)[C@@H](CO)NC(=O)C(Cl)Cl)cc1 ) reads 13.4

Sure, the documented inhibition at 100 µM for NCC(=O)O is 0

Quick note, inhibition at 100 µM for CC(C)COc1ccc(CNC(=O)N(Cc2ccc(F)cc2)C2CCN(C)CC2)cc1 landed at 1.16

The measured inhibition at 100 µM associated with COc1cc(OC)c(C(=O)CCCN2CCCC2)c(OC)c1 [Buflomedil HCl] reads 0

The measured inhibition at 100 µM associated with C[N+](C)(C)CC(O)CC(=O)[O-] (racemic) [DL-Carnitine HCl] reads 0

What the record says about Cc1cc(/C=C/C#N)cc(C)c1Nc1ccnc(Nc2ccc(C#N)cc2)n1 : inhibition at 100 µM is 7.83

// inhibition at 100 µM lookup, molecule = COc1ccc(CN2CCNCC2)c(OC)c1OC [Trimetazidine dihydrochloride] , result: 0

Per the records, this molecule ( CC(C)NCC(O)c1ccc(O)c(O)c1 (stereo not shown) [Isoprenaline HCl] ) has inhibition at 100 µM equal to 5.07

Noted for CCCCC(=O)O[C@H]1CC[C@H]2[C@@H]3CCc4cc(O)ccc4[C@H]3CC[C@]12C [Estradiol valerate] : its inhibition at 100 µM reads 3.33

Sure, the documented inhibition at 100 µM for CC(=O)c1c(C)c2cnc(Nc3ccc(N4CCNCC4)cn3)nc2n(C2CCCC2)c1=O [Palbociclib (PD-0332991) HCl] is 0

For this molecule ( CN(Cc1ccc(C(C)(C)C)cc1)Cc1cccc2ccccc12 [Butenafine HCl] ), measured inhibition at 100 µM is 0

# inhibition at 100 µM of CC1=C(C(=O)O)N2C(=O)[C@@H](NC(=O)[C@H](N)c3ccccc3)[C@H]2SC1 = 0

The molecule listed as CC1=C(C/C=C(\C)CCC[C@H](C)CCC[C@H](C)CCCC(C)C)C(=O)c2ccccc2C1=O shows inhibition at 100 µM equal to 19.5

The molecule listed as N=C(N)c1ccc(OCCCCCOc2ccc(C(=N)N)cc2)cc1 [Pentamidine isethionate] has a reported inhibition at 100 µM of 0

Measured inhibition at 100 µM, COC(=O)N/N=C/c1c[n+]([O-])c2ccccc2[n+]1[O-] : 6.86

Summary for this molecule, CC(=O)O[C@H]1C[C@@H]2CC[C@@H]3[C@H](CC[C@@]4(C)[C@H]3C[C@H]([N+]3(C)CCCCC3)[C@@H]4OC(C)=O)[C@@]2(C)C[C@@H]1[N+]1(C)CCCCC1 [Pancuronium dibromide] : inhibition at 100 µM is 0

Per the record, Cc1cc(C2CCCCC2)n(O)c(=O)c1 has inhibition at 100 µM of 22.9

Lab note: measured inhibition at 100 µM of OCCN(CCO)c1nc(N2CCCCC2)c2nc(N(CCO)CCO)nc(N3CCCCC3)c2n1 was 26.7

Given item CCc1ccc(CCOc2ccc(CC3SC(=O)NC3=O)cc2)nc1 (stereo not shown) , the value recorded as its inhibition at 100 µM is 0

Record CCCCCCCC(=O)N[C@H](CN1CCCC1)[C@H](O)c1ccc2c(c1)OCCO2 . Reported inhibition at 100 µM: 2.49

# molecule CC12CC3CC(C)(C1)CC(N)(C3)C2 [Memantine HCl] ; its inhibition at 100 µM = 0

Sure, the documented inhibition at 100 µM for C#CCC(Cc1cnc2nc(N)nc(N)c2n1)c1ccc(C(=O)N[C@@H](CCC(=O)O)C(=O)O)cc1 (stereo partly shown) [Pralatrexate] is 13.2

Input O=C(c1ccc(F)c(F)c1Nc1ccc(I)cc1F)N1CC(O)([C@@H]2CCCCN2)C1 . Output inhibition at 100 µM: 5.28

// CNCc1cc(-c2ccccc2F)n(S(=O)(=O)c2cccnc2)c1 [Vonoprazan Fumarate (TAK-438)] : inhibition at 100 µM value = 0

According to the records, this molecule CCOc1nc2cccc(C(=O)OCc3oc(=O)oc3C)c2n1Cc1ccc(-c2ccccc2-c2noc(=O)[nH]2)cc1 displays inhibition at 100 µM of 9.53
